Data origin, for the record: PubChem BioAssay (NCI)

Test system: SW-620 colon
methodDescription: NCI-60 one-dose screen, 48 h (100 = growth as untreated, 0 = no growth, -100 = all killed)
assaySetup: 10 µM unless noted
Compounds without any hit were thinned out: in the full panel of roughly 83,000, 20% have a hit.
measuredParameter: growth (%)
Please respond with the number in % and leave the unit unwritten.

Known growth results, listed for orientation:
[
  {
    "molecule": "Cc1ccc2c(c1)CC(O)CC1C(=O)N(CCO)CC(=O)N21 (centres undefined)",
    "quantitativeResult": 106
  },
  {
    "molecule": "CNc1nc2ncc(-c3c(C)noc3C)cc2n1Cc1ccccc1",
    "quantitativeResult": 71.8
  },
  {
    "molecule": "COC(=O)c1ccc(-n2cc(CCCOS(=O)(=O)c3ccc(F)cc3)nn2)cc1",
    "quantitativeResult": 100
  },
  {
    "molecule": "C=C(C)[C@@H]1CCC[C@]2(C(=O)OC)CC[C@]3(C)[C@@H](CC[C@@H]4[C@@]5(C)CCCNC(C)(C)[C@@H]5CC[C@]43C)[C@@H]12",
    "quantitativeResult": 86.7
  },
  {
    "molecule": "Nc1ncc(-c2ccc3ncnc(N4CCc5cc(F)c(Cl)cc54)c3c2)cc1C(F)(F)F",
    "quantitativeResult": 38.2
  },
  {
    "molecule": "COc1cc(C)cc(-c2c(-c3cc(N4CC(O)C4)nc(-c4cccnc4)n3)cnn2C)c1",
    "quantitativeResult": 101
  }
]

Field request: growth | item: CC(C)c1nc(N(C)S(C)(=O)=O)nc(-c2ccc(F)cc2)c1/C=C/C(=O)C[C@@H](O)CC(=O)O 108

Field request: growth | item: [2H]C([2H])([2H])Oc1c(F)cccc1/C=C/C(=O)/C=C(O)/C=C/c1cccc(F)c1OC([2H])([2H])[2H] 109

Field request: growth | item: CCCCN(CCC#N)C(N)=O 99.2
